Values from paper PMC9723946

assay system: His-tagged G3BP1 NTF2 (peptide arrays) (human, UniProt Q13283 1-139)
Sequence (Q13283 1-139): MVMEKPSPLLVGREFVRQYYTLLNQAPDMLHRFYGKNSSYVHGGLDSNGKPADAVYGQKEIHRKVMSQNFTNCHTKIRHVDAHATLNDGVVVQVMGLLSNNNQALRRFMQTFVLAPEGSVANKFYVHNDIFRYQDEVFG
experiment: peptide or protein array

# binder, binding result
records = [
    ("QGPYNFIQDSMLDFENQTLD [native Caprin1 peptide QGPYNFIQDSMLDFENQTLD (SPOT array)]", "binds"),
    ("QGPYCFIQDSMLDFENQTLD [Caprin1 peptide N371C (SPOT array)]", "binds"),
    ("QGPYHFIQDSMLDFENQTLD [Caprin1 peptide N371H (SPOT array)]", "binds"),
    ("QGPYDFIQDSMLDFENQTLD [Caprin1 peptide N371D (SPOT array)]", "binds"),
    ("QGPYNFIQDSFLDFENQTLD [Caprin1 peptide M377F (SPOT array)]", "binds"),
    ("QGPYNFLQDSMLDFENQTLD [Caprin1 peptide I373L (SPOT array)]", "binds"),
    ("QGPYSFIQDSMLDFENQTLD [Caprin1 peptide N371S (SPOT array)]", "binds"),
]
